target: acetylcholinesterase (Homo sapiens)
Sequence (P22303 32-614, species assumed): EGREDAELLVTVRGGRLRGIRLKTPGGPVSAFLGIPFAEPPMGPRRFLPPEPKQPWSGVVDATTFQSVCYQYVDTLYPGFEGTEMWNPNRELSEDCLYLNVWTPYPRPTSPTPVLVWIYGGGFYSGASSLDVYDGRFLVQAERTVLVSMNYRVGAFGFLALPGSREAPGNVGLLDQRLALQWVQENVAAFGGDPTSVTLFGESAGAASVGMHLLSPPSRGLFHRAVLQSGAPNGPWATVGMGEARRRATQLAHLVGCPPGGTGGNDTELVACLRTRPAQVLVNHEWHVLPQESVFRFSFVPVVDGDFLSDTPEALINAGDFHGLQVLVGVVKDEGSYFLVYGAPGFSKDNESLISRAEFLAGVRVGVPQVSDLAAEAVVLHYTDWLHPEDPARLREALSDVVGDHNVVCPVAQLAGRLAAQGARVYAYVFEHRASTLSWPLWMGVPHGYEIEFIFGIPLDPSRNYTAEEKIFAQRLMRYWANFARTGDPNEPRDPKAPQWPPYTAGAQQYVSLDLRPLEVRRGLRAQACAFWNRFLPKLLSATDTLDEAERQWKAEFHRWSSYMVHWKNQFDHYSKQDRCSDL
protocol_notes: biochemical
Assay type: biochemical
property_measured: IC50

{"columns": ["compound", "property_measured", "reported"],
 "data": [
  ["C[C@@H]1O[C@@H](OC[C@H]2O[C@@H](Oc3c(-c4ccc(O)c(O)c4)oc4cc(O)cc(O)c4c3=O)[C@H](O)[C@@H](O)[C@@H]2O)[C@H](O)[C@H](O)[C@H]1O [Compound 7, rutin]", "IC50", "806 µM"],
  ["O=c1c(O)c(-c2ccc(O)cc2)oc2cc(O)cc(O)c12 [Compound 3, kaempferol]", "IC50", "1760 µM"],
  ["O=c1cc(-c2ccc(O)c(O)c2)oc2cc(O)cc(O)c12 [Compound 1, luteolin]", "IC50", "1660 µM"]
]}

----------
target: acetylcholinesterase (Homo sapiens)
protocol_notes: biochemical
Type: biochemical
settings: 96-well plate, PBS, ACTI and DTNB, 37 °C 20 min; huperzine A positive control; read-out: Acetylcholinesterase inhibitory activity IC50 (converted)
IC50 overview

{"columns": ["molecule", "IC50 (µM)"],
 "data": [
  ["COC1OC(CNC2C(OC)OC(CO)C(O)C2O)C(O)C(O)C1O [Compound 11, α-D-Alt-p-OMe (N2-6) α-D-Gle-p-OMe]", 1400],
  ["CC#CC#CC#CC#CC#CC(CO)O[C@@H]1O[C@H](CO)[C@@H](O)[C@H](O)[C@H]1O (stereo partly shown) [Compound 10]", 1450],
  ["OCC1OC(OC2C(CO)OC(OC3C(CO)OC(OC4(CO)OC(CO)C(O)C4O)C(O)C3O)C(O)C2O)C(O)C(O)C1O (stereo not shown) [Compound 12]", 761],
  ["CC(C)[C@@H](C)/C=C/[C@@H](C)[C@H]1CC[C@@H]2[C@]1(C)CC[C@H]1[C@]23C=C[C@]2(C[C@@H](O)CC[C@]12C)OO3 [Compound 8, ergosterol peroxide]", 1170]
]}

----------
α-glucosidase activity inhibition IC50 overview
target: α-glucosidase
protocol_notes: α-Glucosidase inhibitory activity experiment (PNPG, 405 nm)
Type: biochemical
settings: 96-well plate, PBS pH 7.4, 37 °C, PNPG substrate; acarbose positive control

{"columns": ["molecule", "α-glucosidase activity inhibition IC50, µg/mL"],
 "data": [
  ["COC1OC(CNC2C(OC)OC(CO)C(O)C2O)C(O)C(O)C1O (stereo not shown)", 318.44],
  ["CC(C)[C@@H](C)/C=C/[C@@H](C)[C@H]1CC[C@@H]2[C@]1(C)CC[C@H]1[C@]23C=C[C@]2(C[C@@H](O)CC[C@]12C)OO3 [Compound 8, ergosterol peroxide]", 452.50],
  ["OCC1OC(OC2C(CO)OC(OC3C(CO)OC(OC4(CO)OC(CO)C(O)C4O)C(O)C3O)C(O)C2O)C(O)C(O)C1O (stereo not shown)", 444.88],
  ["CC#CC#CC#CC#CC#CC(CO)O[C@@H]1O[C@H](CO)[C@@H](O)[C@H](O)[C@H]1O (stereo partly shown)", 492.11]
]}

----------
target: tyrosinase
protocol_notes: Tyrosinase inhibitory activity experiment (L-tyrosine, 405 nm)
Assay type: biochemical
settings: 96-well plate, PBS, L-tyrosine substrate, 37 °C 30 min; kojic acid positive control

{"columns": ["compound", "Tyrosinase inhibitory activity IC50"],
 "data": [
  ["OCC1OC(OC2C(CO)OC(OC3C(CO)OC(OC4(CO)OC(CO)C(O)C4O)C(O)C3O)C(O)C2O)C(O)C(O)C1O (stereo not shown)", "1750.08 µg/mL"],
  ["CC(C)[C@@H](C)/C=C/[C@@H](C)[C@H]1CC[C@@H]2[C@]1(C)CC[C@H]1[C@]23C=C[C@]2(C[C@@H](O)CC[C@]12C)OO3 [Compound 8, ergosterol peroxide]", "202.37 µg/mL"],
  ["COC1OC(CNC2C(OC)OC(CO)C(O)C2O)C(O)C(O)C1O (stereo not shown)", "302.42 µg/mL"],
  ["O=c1cc(-c2ccc(O)c(O)c2)oc2cc(O)cc(O)c12", "1643.11 µg/mL"]
]}
